These entries and their values trace back to PubChem BioAssay.

method: PSAC antagonists in infected red cells, primary screen, cell-based, P. falciparum Indochina, OD700, 18 h (AID 1157)
test parameters: P. falciparum Indochina infected erythrocytes, osmotic lysis OD700, 18 h; higher = more signal, called active from +8 up or from −8 down
Activity calls are given as the source filed them.
Field: z-score. Provide a value for each of the molecules that follow.

Exam item: Please indicate z-score recorded for C[C@@H](c1ccccc1)N1C(=O)[C@H]2[C@H]3[C@H](O)[C@H](O)CC(=NOCc4ccccc4)[C@@H]3CC[C@H]2C1=O
Marked response: 0.479 (inactive)

Exam item: Please indicate z-score recorded for CC(=O)OC[C@H]1O[C@H](C#CCCc2ccccc2)C=C[C@@H]1OC(C)=O
Marked response: 0.148 (inactive)

Exam item: Please indicate z-score recorded for COc1ccc(COC(=O)NN=C2C[C@@H](O)[C@@H](O)[C@@H]3[C@@H]4C(=O)N(C5CCCCC5)C(=O)[C@@H]4CC[C@@H]23)cc1
Marked response: 0.622 (inactive)

Exam item: Please indicate z-score recorded for CC(C)[C@H](NC(=O)OC(C)(C)C)[C@@H](O)CC(=O)C(C)(C)C
Marked response: 0.126 (inactive)

Exam item: Please indicate z-score recorded for CCOC(=O)CCN1C(=O)[C@H]2[C@H]3[C@H](O)[C@H](O)CC(=NNC(=O)OCc4ccc(OC)cc4)[C@H]3CC[C@H]2C1=O
Marked response: 0.0103 (inactive)

Exam item: Please indicate z-score recorded for CCOC(=O)[C@H](CC(C)C)NC(=O)CCC1CC(OC(=O)NCc2ccc3c(c2)OCO3)CC2(CCCC(COC(=O)NCCOc3ccccc3)O2)O1 (stereo partly drawn)
Marked response: -0.193 (inactive)

Exam item: Please indicate z-score recorded for CO[C@H]1COC(=O)CCC[C@H](C)[C@@H](OC)COC(=O)CC=C[C@@H]1C
Marked response: -2.45 (inactive)

Exam item: Please indicate z-score recorded for CCOC(=O)[C@H](Cc1ccccc1)NC(=O)CCC1CC(OC(=O)NCCc2ccc(F)cc2)CC2(CCCC(COC(=O)NCc3cccc(C(F)(F)F)c3)O2)O1 (stereo partly drawn)
Marked response: 0.344 (inactive)
